biological target: human MC3R (human, UniProt P41968 1-323); assay: cell-based or functional assay
Sequence (P41968 whole entry): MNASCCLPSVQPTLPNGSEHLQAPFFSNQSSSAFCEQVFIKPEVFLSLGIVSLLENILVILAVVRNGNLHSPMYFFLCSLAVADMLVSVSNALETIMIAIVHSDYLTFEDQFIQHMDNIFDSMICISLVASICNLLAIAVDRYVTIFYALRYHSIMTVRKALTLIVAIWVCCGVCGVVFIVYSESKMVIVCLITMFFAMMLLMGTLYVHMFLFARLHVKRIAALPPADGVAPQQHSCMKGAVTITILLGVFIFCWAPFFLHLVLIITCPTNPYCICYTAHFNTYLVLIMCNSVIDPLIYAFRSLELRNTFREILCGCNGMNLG
Positions of bridges follow the written chain, without caps; N, C: chain ends. Non-standard residues stand in square brackets, D forms with d. Cit = NC(=O)NCCC[C@H](N)C(=O)O; Aib = CC(C)(N)C(=O)O
RECORDED_METRIC: % max activation (%)

• {CH2CO}-[Aib][Cit][dF]RWC-NH2 (thioether N-6; SMILES CC1(C)NC(=O)CSC[C@@H](C(N)=O)NC(=O)[C@H](Cc2c[nH]c3ccccc23)NC(=O)[C@H](CCCNC(=N)N)NC(=O)[C@@H](Cc2ccccc2)NC(=O)[C@H](CCCNC(N)=O)NC1=O) [CTX-1649] = 79
• {CH2CO}-[dA]R[dF]RWC-NH2 (thioether N-6; SMILES C[C@H]1NC(=O)CSC[C@@H](C(N)=O)NC(=O)[C@H](Cc2c[nH]c3ccccc23)NC(=O)[C@H](CCCNC(=N)N)NC(=O)[C@@H](Cc2ccccc2)NC(=O)[C@H](CCCNC(=N)N)NC1=O) [CTX-1642] = 90

The reported numbers originate from patent US20240391954A1.
